# Tested on: OVCAR-4 ovarian
# RUN_DESCRIPTION: NCI tumour cell line growth inhibition, 48 h; in the data active = GI50 below about 0.43 µM; inactive = the rest
Your response should consist of one outcome taken from true = active, false = inactive

Incoming: # lookup: test call for COc1ccc(C2CC(c3ccc(N(C)C)cc3)=NN2c2ccc(S(N)(=O)=O)cc2)cc1 (centres undefined)
Outgoing: false

Incoming: Give the logged outcome of this assay for the following compound: [Cl][Cu][Cl]
Outgoing: false

Incoming: Recorded test call requested for COc1ccc(COc2cc3oc(=O)c4cc(C(C)O)ccc4c3cc2OC)cc1 (centres undefined)
Outgoing: false

###

# Tested on: TK-10 renal
# RUN_DESCRIPTION: NCI tumour cell line growth inhibition, 48 h
VALUE_KIND: GI50

// below: answered molecules
MOLECULE: CC(C)N(Cc1ccc(F)cc1)c1ccc(CO)c(Cl)c1
RESULT: 0.0283 µM
--
MOLECULE: Cc1ccc(Cl)cc1-n1c(C)nc2c(cnn2-c2ccnc3c(C(F)(F)F)cccc23)c1=O
RESULT: > 100 µM
--
MOLECULE: CC1CCC2C(CN(CC3=C(C(F)(F)F)OC4OC5(C)CCC6C(C)CCC3C46OO5)CC3=C(C(F)(F)F)OC4OC5(C)CCC6C(C)CCC3C46OO5)=C(C(F)(F)F)OC3OC4(C)CCC1C32OO4 (stereo not drawn)
RESULT: 15.4 µM
--
MOLECULE: COC1=C(OC)C(=O)C(CCCCCCCCCCO)=C(C)C1=O
RESULT: 16.6 µM

Looking up CN1CCCC1c1cccnc1.O=C(O)c1ccccc1O.O=C([O-])c1ccccc1[OH2+].O=C([O-])c1ccccc1[OH2+].[Mn+2] (stereo not drawn) , I found its GI50 recorded as > 100 µM

Notebook: O=C1c2ccccc2C(=O)c2c1cc1c(c2[N+](=O)[O-])OCO1 , GI50 read as 2.38 µM

Record summary for N#C/C(=C\c1cc2ccc(N3CCC3)cc2oc1=O)C(=O)N(CC(=O)O)CC(=O)O : reported GI50 = > 100 µM

The reported GI50 of the molecule O=C(c1ccco1)c1c(C(F)(F)F)n([O-])c2cc(F)c(F)cc2[n+]1=O was 0.204 µM
